test system: Haemophilus influenzae; test: In vitro antibacterial activity against Haemophilia influenzae strains ATCC 30063 and ATCC 31517; assay type: functional
MEASURED PARAMETER: MIC (µg/mL)
Your answer should be a plain number; it is taken to be in µg/mL.

Enquiry: Please look at this compound and report its MIC: O=C(NC[C@H]1CN(c2ccc(N3CC[S+]([O-])CC3)c(F)c2)C(=O)O1)C1CC1
Return: 32

Enquiry: Find the measured MIC of CC(=O)Oc1ccc(C(=O)NC[C@H]2CN(c3ccc(C4CC[S+]([O-])CC4)c(F)c3)C(=O)O2)cc1 (stereo not given in full) and report it.
Return: 64

###

tested on: Staphylococcus aureus; experiment: In vitro antibacterial activity against linezolid-resistant Staphylococcus aureus ATCC 29213 (LRSA).; format: functional
MEASURED PARAMETER: MIC (µg/mL)
Kindly provide the numeric value in µg/mL only, without the unit symbol.

Some molecules with known MIC results, for comparison:
O=C1O[C@@H](CNC(=O)C(F)(F)F)CN1c1ccc(C2CC[S+]([O-])CC2)c(F)c1 (stereo partly drawn)	32
O=C(NC[C@H]1CN(c2ccc(N3CCS(=O)(=O)CC3)c(F)c2)C(=O)O1)c1csnn1	32

Enquiry: Tell me MIC reported for O=C(NC[C@H]1CN(c2ccc(N3CC[S+]([O-])CC3)c(F)c2)C(=O)O1)C1CC1
Return: 64

###

Quick list: MIC per entry.
system: Haemophilus influenzae; test: In vitro antibacterial activity against Haemophilia influenzae strains ATCC 30063 and ATCC 31517; type: functional

Consider the reported MIC for these compounds:
O=C(CO)NC[C@H]1CN(c2ccc(C3CC[S+]([O-])CC3)c(F)c2)C(=O)O1 (stereo partly drawn)	8 µg/mL
COc1ccc(OC)c(C(=O)NC[C@H]2CN(c3ccc(N4CC[S+]([O-])CC4)c(F)c3)C(=O)O2)c1	> 64 µg/mL
CC(=O)Nc1ccc(/C=C/C(=O)NC[C@H]2CN(c3ccc(N4CC[S+]([O-])CC4)c(F)c3)C(=O)O2)cc1	> 64 µg/mL
CC(=O)NC[C@H]1CN(c2ccc(C3CC[S+]([O-])CC3)c(F)c2)C(=O)O1 (stereo partly drawn)	8 µg/mL
CC(=O)Oc1ccc(/C=C/C(=O)NC[C@H]2CN(c3ccc(C4CC[S+]([O-])CC4)c(F)c3)C(=O)O2)cc1 (stereo partly drawn)	32 µg/mL

Enquiry: Look up and state reported MIC for CO/N=C/c1ccc(/C=C/C(=O)NC[C@H]2CN(c3ccc(N4CC[S+]([O-])CC4)c(F)c3)C(=O)O2)cc1
Return: > 64 µg/mL

Enquiry: Using the record for O=C(/C=C/c1ccc(O)cc1)NC[C@H]1CN(c2ccc(C3CC[S+]([O-])CC3)c(F)c2)C(=O)O1 (stereo partly drawn) , state its measured MIC.
Return: > 64 µg/mL

Enquiry: Item NCCC(O)C(=O)NC[C@H]1CN(c2ccc(C3CCS(=O)(=O)CC3)c(F)c2)C(=O)O1 (stereo partly drawn) : provide MIC
Return: > 64 µg/mL

###

experiment: In vivo Oral bioavailability (F)was determined after peroral administration of compound (76.4+/-2.6 mg/kg) in male Sprague-Dawley rat; format: ADME, organism-based
MEASURED PARAMETER: bioavailability

Enquiry: Query bioavailability for O=C(NC[C@H]1CN(c2ccc(C3CC[S+]([O-])CC3)c(F)c2)C(=O)O1)C(F)F (stereo partly specified)
Return: 95.1%

Reference source for all entries: ChEMBL document CHEMBL1136459
